Entry source: ChEMBL document CHEMBL1921670

# Assay Procedure: Clearance in rat at 1 mg/kg, iv or 2 mg/kg, po
# Assay type: ADME, organism-based
# Stated Conditions: in vivo
Attribute Measured: clearance (mL/min/kg)

Please review the following examples before continuing.
COc1cccc(CNC(=O)c2cn(CCN(C)C)c3cc(-c4cn[nH]c4)ccc23)c1 = 42
COc1cccc(CNC(=O)c2cn(CCN3CCCC3)c3nc(-c4cn[nH]c4)ccc23)c1 = 114

1. COc1cccc(CN(C(=O)c2cc3ccc(-c4cn[nH]c4)nc3[nH]2)C2CC2)c1
2. COc1cccc(CNC(=O)c2[nH]c3cc(-c4cn[nH]c4)ccc3c2CN2CCOCC2)c1
3. COc1cccc(CNC(=O)c2cc3ccc(-c4cn[nH]c4)nc3n2C)c1
Order the records by clearance, with each subsequent value no larger than the one before. List the labels, following the order given in the request.
2, 1, 3
(2: 32 mL/min/kg, 1: 21 mL/min/kg, 3: 4 mL/min/kg)

---

# Measurement Target: CYP1A2 (Homo sapiens, UniProt P05177)
# Sequence (P05177 whole entry): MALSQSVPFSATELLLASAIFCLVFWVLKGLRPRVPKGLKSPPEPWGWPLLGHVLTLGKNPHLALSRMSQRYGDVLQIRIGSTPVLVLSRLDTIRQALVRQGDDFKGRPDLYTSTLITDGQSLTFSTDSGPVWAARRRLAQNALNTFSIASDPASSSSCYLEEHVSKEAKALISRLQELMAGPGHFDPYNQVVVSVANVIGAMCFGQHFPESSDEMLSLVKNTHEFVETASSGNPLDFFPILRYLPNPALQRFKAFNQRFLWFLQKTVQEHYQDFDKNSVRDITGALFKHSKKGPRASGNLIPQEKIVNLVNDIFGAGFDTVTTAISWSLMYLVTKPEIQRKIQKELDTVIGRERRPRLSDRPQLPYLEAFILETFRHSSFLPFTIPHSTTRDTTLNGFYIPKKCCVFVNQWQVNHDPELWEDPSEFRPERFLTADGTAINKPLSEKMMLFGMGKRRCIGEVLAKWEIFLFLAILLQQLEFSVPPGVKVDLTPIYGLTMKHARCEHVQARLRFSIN
# Assay Procedure: Inhibition of CYP1A2 at 10 uM
# Type: ADME
Attribute Measured: inhibition at 10 µM (%)

Please review the following examples before continuing.
COc1cccc(CNC(=O)c2cn(C)c3cc(-c4cn[nH]c4)ccc23)c1 = 23
COc1cccc(CNC(=O)c2cc3ccc(-c4cn[nH]c4)nc3n2CCN(C)C)c1 = 26
COc1cccc(CN(C(=O)c2c[nH]c3nc(-c4cn[nH]c4)ccc23)C2CC2)c1 = -5

A. COc1cccc(CN(CCN2CCCC2)C(=O)c2cc3ccc(-c4cn[nH]c4)nc3[nH]2)c1
B. COc1cccc(CNC(=O)c2cn(CCN(C)C)c3cc(-c4cn[nH]c4)ccc23)c1
Choose between A and B : whose measured inhibition at 10 µM value is numerically larger? Reply briefly: the label of your chosen item.
A
(A: 12%, B: -6%)

---

# Assay Procedure: AUC in rat at 1 mg/kg, iv
# Assay type: ADME, organism-based
# Parameters: dose 1 mg/kg, route intravenous
# Stated Conditions: plasma
Attribute Measured: AUC (µM·h)

Please review the following examples before continuing.
COc1cccc(CN(C(=O)c2cc3ccc(-c4cn[nH]c4)nc3[nH]2)C2CC2)c1 = 2.2
COc1cccc(CNC(=O)c2[nH]c3cc(-c4cn[nH]c4)ccc3c2CN2CCOCC2)c1 = 1.2
COc1cccc(CNC(=O)c2cn(CCN3CCCC3)c3nc(-c4cn[nH]c4)ccc23)c1 = 0.3

a. COc1cccc(CNC(=O)c2cc3ccc(-c4cn[nH]c4)nc3n2C)c1
b. COc1cccc(CNC(=O)c2cn(CCN(C)C)c3cc(-c4cn[nH]c4)ccc23)c1
Choose between a and b : whose measured AUC value is numerically larger? Reply briefly: the label of your chosen item.
a

---

# Measurement Target: CYP2C9 (Homo sapiens)
# Assay Procedure: Inhibition of CYP2C9 at 10 uM
# Type: ADME
Attribute Measured: inhibition at 10 µM (%)

Please review the following examples before continuing.
COc1cccc(CN(CCN(C)C)C(=O)c2cn(C)c3cc(-c4cn[nH]c4)ccc23)c1 = 62
COc1cccc(CNC(=O)c2cn(-c3ccccc3)c3cc(-c4cn[nH]c4)ccc23)c1 = 96

A. COc1cccc(CNC(=O)c2cn(C)c3cc(-c4cn[nH]c4)ccc23)c1
B. COc1cccc(CNC(=O)c2cc3ccc(-c4cn[nH]c4)nc3n2CCN(C)C)c1
C. COc1cccc(CNC(=O)c2[nH]c3nc(-c4cn[nH]c4)ccc3c2CN2CCN(C)CC2)c1
D. COc1cccc(CN(CCN2CCCC2)C(=O)c2cc3ccc(-c4cn[nH]c4)nc3[nH]2)c1
Arrange the 4 entries by inhibition at 10 µM so the values rise. List the labels, following the order given in the request.
C, D, B, A
(C: -26%, D: 26%, B: 46%, A: 93%)

---

# Assay Procedure: Oral bioavailability in rat at 2 mg/kg
# Type: ADME, organism-based
# Stated Conditions: in vivo
Attribute Measured: bioavailability (%)

COc1cccc(CNC(=O)c2cn(CCN3CCCC3)c3nc(-c4cn[nH]c4)ccc23)c1 = 0

1. COc1cccc(CN(C(=O)c2cc3ccc(-c4cn[nH]c4)nc3[nH]2)C2CC2)c1
2. COc1cccc(CNC(=O)c2cc3ccc(-c4cn[nH]c4)nc3n2C)c1
3. COc1cccc(CNC(=O)c2[nH]c3cc(-c4cn[nH]c4)ccc3c2CN2CCOCC2)c1
4. COc1cccc(CNC(=O)c2cn(CCN(C)C)c3cc(-c4cn[nH]c4)ccc23)c1
Arrange the 4 entries by bioavailability so the values rise. List the labels, following the order given in the request.
3, 4, 1, 2
(3: 0%, 4: 1%, 1: 22%, 2: 35%)

---

# Measurement Target: CYP2C9 (Homo sapiens, UniProt P11712)
# Sequence (P11712 whole entry): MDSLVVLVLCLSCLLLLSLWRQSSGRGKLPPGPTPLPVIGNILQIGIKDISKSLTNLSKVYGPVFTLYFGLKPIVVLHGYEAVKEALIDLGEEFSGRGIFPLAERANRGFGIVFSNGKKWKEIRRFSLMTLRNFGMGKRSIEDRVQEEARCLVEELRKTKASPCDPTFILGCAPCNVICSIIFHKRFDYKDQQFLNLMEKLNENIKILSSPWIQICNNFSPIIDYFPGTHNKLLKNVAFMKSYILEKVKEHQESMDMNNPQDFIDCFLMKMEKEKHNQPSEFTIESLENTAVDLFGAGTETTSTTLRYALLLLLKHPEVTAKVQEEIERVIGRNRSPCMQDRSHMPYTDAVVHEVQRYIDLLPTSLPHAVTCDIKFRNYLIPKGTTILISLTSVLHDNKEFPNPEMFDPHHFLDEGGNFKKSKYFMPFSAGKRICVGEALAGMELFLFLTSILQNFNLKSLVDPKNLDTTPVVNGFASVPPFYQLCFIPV
# Assay Procedure: Inhibition of CYP2C9 at 10 uM
# Type: ADME
Attribute Measured: inhibition at 10 µM (%)

COc1cccc(CNC(=O)c2[nH]c3nc(-c4cn[nH]c4)ccc3c2CN2CCOCC2)c1 = 9
COc1cccc(CN(C(=O)c2c[nH]c3nc(-c4cn[nH]c4)ccc23)C2CC2)c1 = 91
COc1cccc(CNC(=O)c2cn(CCCO)c3cc(-c4cn[nH]c4)ccc23)c1 = 87

a. COc1cccc(CNC(=O)c2cn(CCN(C)C)c3cc(-c4cn[nH]c4)ccc23)c1
b. COc1cccc(CN(C)C(=O)c2cc3ccc(-c4cn[nH]c4)cc3[nH]2)c1
// select label with min value of measured inhibition at 10 µM from [ a , b ] Reply briefly: the label of your chosen item.
b
(b: 27%, a: 91%)

---

# Measurement Target: CYP3A4 (Homo sapiens, UniProt P08684)
# Sequence (P08684 whole entry): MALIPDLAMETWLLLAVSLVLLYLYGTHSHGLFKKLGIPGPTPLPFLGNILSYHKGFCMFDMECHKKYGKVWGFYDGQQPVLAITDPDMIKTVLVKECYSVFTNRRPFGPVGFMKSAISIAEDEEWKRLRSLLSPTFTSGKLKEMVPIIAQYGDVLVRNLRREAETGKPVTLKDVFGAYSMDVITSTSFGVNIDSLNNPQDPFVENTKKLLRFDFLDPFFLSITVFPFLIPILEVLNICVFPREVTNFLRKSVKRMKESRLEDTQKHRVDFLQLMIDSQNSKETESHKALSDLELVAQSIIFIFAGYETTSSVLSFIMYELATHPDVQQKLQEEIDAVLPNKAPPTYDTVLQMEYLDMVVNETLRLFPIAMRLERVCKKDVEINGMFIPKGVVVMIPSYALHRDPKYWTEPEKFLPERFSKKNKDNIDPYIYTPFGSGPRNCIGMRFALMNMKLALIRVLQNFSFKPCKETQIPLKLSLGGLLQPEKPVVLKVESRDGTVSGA
# Assay Procedure: Inhibition of CYP3A4 at 10 uM
# Assay type: ADME
Attribute Measured: inhibition at 10 µM (%)

Please review the following examples before continuing.
COc1cccc(CNC(=O)c2cc3ccc(-c4cn[nH]c4)nc3n2CCN(C)C)c1 = 65
COc1cccc(CNC(=O)c2cc3ccc(-c4cn[nH]c4)nc3n2C)c1 = 40
COc1cccc(CNC(=O)c2[nH]c3cc(-c4cn[nH]c4)ccc3c2CN(C)C)c1 = 19
COc1cccc(CNC(=O)c2cn(CCN3CCCC3)c3nc(-c4cn[nH]c4)ccc23)c1 = 44
COc1cccc(CN(CCCN(C)C)C(=O)c2cn(C)c3cc(-c4cn[nH]c4)ccc23)c1 = 31

P. COc1cccc(CN(CCN2CCCC2)C(=O)c2cc3ccc(-c4cn[nH]c4)nc3[nH]2)c1
Q. COc1cccc(CNC(=O)c2cn(C)c3cc(-c4cn[nH]c4)ccc23)c1
// select label with min value of measured inhibition at 10 µM from [ P , Q ] Reply briefly: the label of your chosen item.
P

I. COc1cccc(CN(C)C(=O)c2c[nH]c3cc(-c4cn[nH]c4)ccc23)c1
II. COc1cccc(CN(C)C(=O)c2cc3ccc(-c4cn[nH]c4)cc3[nH]2)c1
III. COc1cccc(CN(C)C(=O)c2cn(C)c3cc(-c4cn[nH]c4)ccc23)c1
Order the records by inhibition at 10 µM, with each subsequent value no larger than the one before. List the labels, following the order given in the request.
III, I, II
(III: 70%, I: 38%, II: 2%)

P. COc1cccc(CNC(=O)c2[nH]c3nc(-c4cn[nH]c4)ccc3c2CN2CCN(C)CC2)c1
Q. COc1cccc(CN(C(=O)c2c[nH]c3nc(-c4cn[nH]c4)ccc23)C2CC2)c1
// select label with min value of measured inhibition at 10 µM from [ P , Q ] Reply briefly: the label of your chosen item.
P
(P: 34%, Q: 56%)

a. COc1cccc(CNC(=O)c2[nH]c3cc(-c4cn[nH]c4)ccc3c2CN2CCCNCC2)c1
b. COc1cccc(CN(C)C(=O)c2cc3ccc(-c4cn[nH]c4)nc3[nH]2)c1
// select label with min value of measured inhibition at 10 µM from [ a , b ] Reply briefly: the label of your chosen item.
b
(b: 27%, a: 51%)

---

# Assay Procedure: Inhibition of myosin light chain bisphosphorylation by cell-based assay
pIC50: −log10 of the molar value.
Attribute Measured: pIC50

Please review the following examples before continuing.
COc1cccc(CNC(=O)c2[nH]c3cc(-c4cn[nH]c4)ccc3c2CN2CCN(C)CC2)c1 = 7.40
COc1cccc(CN(CCN2CCCC2)C(=O)c2cc3ccc(-c4cn[nH]c4)cc3[nH]2)c1 = 6.69
COc1cccc(CN(CCCN(C)C)C(=O)c2cn(C)c3cc(-c4cn[nH]c4)ccc23)c1 = 7.28
COc1cccc(CNC(=O)c2cc3ccc(-c4cn[nH]c4)nc3n2C)c1 = 7.60

P. COc1cccc(CN(C)C(=O)c2cc3ccc(-c4cn[nH]c4)cc3[nH]2)c1
Q. COc1cccc(CNC(=O)c2cn(CCN(C)C)c3cc(-c4cn[nH]c4)ccc23)c1
Choose between P and Q : whose measured pIC50 value is numerically larger? Reply briefly: the label of your chosen item.
Q
